Data origin, for the record: patent US20230048132A1

# Test system: PAXF BxPC-3
# TEST_NAME: 2D cell proliferation assay (CellTiter-Blue)
# Format: cell-based
# CONDITION_INFO: Homo sapiens, 72 h, three days of treatment, read-out: abs. IC50
Kindly supply the reported pIC50 values for the records listed here.
The scale used: pIC50 is minus the common logarithm of the concentration in molar units.

Q: Provide only the value of recorded pIC50 for CN(C)[C@H]1CCN(c2ccc(Nc3ncc4c(n3)N(C3CCCC3)C(=O)[C@]3(CCNC3=O)C4)nc2)C1
Ans: 4.92

Q: Provide only the value of recorded pIC50 for CN(C)CCOc1ccc(Nc2ncc3c(n2)N(C2CCCC2)C(=O)[C@]2(CCNC2=O)C3)cc1
Ans: 6.94

Q: Provide only the value of recorded pIC50 for CC(C)N1CCN(c2ccc(Nc3ncc4c(n3)N(C3CCCC3)C(=O)[C@]3(CCNC3=O)C4)nc2)CC1
Ans: 5.54

Q: Provide only the value of recorded pIC50 for O=C1NCC[C@@]12Cc1cnc(Nc3ccc(N4CCNCC4)cc3F)nc1N(C1CCCC1)C2=O
Ans: 6.12

====

# TESTED_SYSTEM: CDK9-CYCLINT1 (Homo sapiens)
# Construct: purchased Carna
# Sequence (P50750 whole entry): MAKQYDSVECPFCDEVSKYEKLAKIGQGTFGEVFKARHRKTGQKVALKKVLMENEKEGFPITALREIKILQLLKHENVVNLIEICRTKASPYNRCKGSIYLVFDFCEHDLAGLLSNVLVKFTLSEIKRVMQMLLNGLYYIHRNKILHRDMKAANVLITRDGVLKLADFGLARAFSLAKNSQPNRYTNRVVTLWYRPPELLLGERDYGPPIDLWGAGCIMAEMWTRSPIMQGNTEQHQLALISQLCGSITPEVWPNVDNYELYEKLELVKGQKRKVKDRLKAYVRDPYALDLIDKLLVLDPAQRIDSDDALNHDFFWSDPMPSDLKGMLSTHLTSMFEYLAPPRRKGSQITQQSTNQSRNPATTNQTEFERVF
# Sequence (O60563 whole entry partner): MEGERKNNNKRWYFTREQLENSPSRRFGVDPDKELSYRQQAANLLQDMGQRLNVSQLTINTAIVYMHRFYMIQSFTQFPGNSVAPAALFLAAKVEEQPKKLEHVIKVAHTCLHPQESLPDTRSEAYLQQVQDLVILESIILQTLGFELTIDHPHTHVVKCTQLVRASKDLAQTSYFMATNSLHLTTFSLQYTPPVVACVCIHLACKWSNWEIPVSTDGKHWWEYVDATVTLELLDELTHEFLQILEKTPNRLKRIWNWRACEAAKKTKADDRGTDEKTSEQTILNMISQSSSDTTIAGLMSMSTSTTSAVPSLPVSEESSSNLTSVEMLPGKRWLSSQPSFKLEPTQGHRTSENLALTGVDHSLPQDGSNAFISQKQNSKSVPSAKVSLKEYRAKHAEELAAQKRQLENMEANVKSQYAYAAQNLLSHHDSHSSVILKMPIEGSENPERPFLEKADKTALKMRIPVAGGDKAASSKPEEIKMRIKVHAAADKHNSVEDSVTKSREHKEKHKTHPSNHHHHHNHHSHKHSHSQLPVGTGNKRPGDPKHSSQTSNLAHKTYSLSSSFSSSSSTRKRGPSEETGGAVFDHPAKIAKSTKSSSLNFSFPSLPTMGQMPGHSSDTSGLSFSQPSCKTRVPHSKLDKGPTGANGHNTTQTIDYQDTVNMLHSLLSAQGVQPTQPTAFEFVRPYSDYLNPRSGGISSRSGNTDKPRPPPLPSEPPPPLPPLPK
# TEST_NAME: CDK inhibition assay (microfluidic LabChip, IC50 format)
# Assay type: biochemical
# CONDITION_INFO: Table 4b, lower part; read-out: CDK9 CyclinT1 IC50
Kindly supply the reported IC50 values for the records listed here.
Answer in µM, number only, no unit symbol.

Q: Provide only the value of recorded IC50 for CC(C)C1CCN(c2ccc(Nc3ncc4c(n3)N(C3CCCC3)C(=O)[C@]3(CCNC3=O)C4)cc2)CC1 [Example D201]
Ans: 0.00785

Q: Provide only the value of recorded IC50 for CS(=O)(=O)N1CCC(Nc2ncc3c(n2)N(C2CCCC2)C(=O)[C@]2(CCNC2=O)C3)CC1 [Example D117]
Ans: 0.00351

Q: Provide only the value of recorded IC50 for CN1CCN(c2ccc(Nc3ncc4c(n3)N(C35CC(C3)C5)C(=O)[C@]3(CCNC3=O)C4)cc2)CC1 [Example D186]
Ans: 0.0615

Q: Provide only the value of recorded IC50 for C[C@]1(O)CC[C@@H](Nc2ncc3c(n2)N(C2CCCC2)C(=O)[C@]2(CCNC2=O)C3)CC1 [Example D126]
Ans: 0.0254

Q: Provide only the value of recorded IC50 for O=C1NCC[C@@]12Cc1cnc(Nc3ccc(N4CCN(CCO)CC4)c(F)c3)nc1N(C13CC(C1)C3)C2=O [Example D99]
Ans: 0.0281

Q: Provide only the value of recorded IC50 for O=C1NCC[C@@]12Cc1cnc(Nc3ccc(N4CCC(N5CCOCC5)CC4)cn3)nc1N(C1CCCC1)C2=O [Example D181]
Ans: 0.818

====

Kindly supply the reported pIC50 values for the records listed here.
# TESTED_SYSTEM: CDK1/B (Homo sapiens, UniProt P06493)
# Sequence (P06493 whole entry, species assumed): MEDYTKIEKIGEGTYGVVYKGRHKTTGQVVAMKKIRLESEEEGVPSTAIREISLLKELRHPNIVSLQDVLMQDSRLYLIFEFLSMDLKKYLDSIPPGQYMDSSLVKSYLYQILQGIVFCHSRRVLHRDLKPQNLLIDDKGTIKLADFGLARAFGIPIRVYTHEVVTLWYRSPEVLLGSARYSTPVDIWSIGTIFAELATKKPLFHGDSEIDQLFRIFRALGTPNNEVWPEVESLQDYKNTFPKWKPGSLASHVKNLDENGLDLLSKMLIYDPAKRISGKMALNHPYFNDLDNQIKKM
# Sequence (P14635 whole entry partner, species assumed): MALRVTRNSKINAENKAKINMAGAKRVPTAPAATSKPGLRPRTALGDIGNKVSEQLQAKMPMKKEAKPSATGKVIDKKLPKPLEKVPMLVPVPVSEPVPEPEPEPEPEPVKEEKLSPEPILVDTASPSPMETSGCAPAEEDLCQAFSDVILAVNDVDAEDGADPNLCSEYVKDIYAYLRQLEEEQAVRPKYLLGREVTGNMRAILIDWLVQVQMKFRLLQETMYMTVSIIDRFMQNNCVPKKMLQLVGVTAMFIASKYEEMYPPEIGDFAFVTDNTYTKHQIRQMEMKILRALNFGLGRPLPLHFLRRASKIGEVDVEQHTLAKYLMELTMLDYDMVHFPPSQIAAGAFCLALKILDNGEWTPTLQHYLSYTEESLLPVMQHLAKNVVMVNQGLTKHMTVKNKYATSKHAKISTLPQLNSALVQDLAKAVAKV
# TEST_NAME: CDK inhibition assay (microfluidic LabChip, IC50 format)
# Format: biochemical
# CONDITION_INFO: Table 4a
The scale used: pIC50 is minus the common logarithm of the concentration in molar units.

Q: Provide only the value of recorded pIC50 for O=C1NCC[C@@]12Cc1cnc(N[C@H]3CC[C@H](NC4CCOCC4)CC3)nc1N(C13CC(C1)C3)C2=O [Example D93]
Ans: 5.96

Q: Provide only the value of recorded pIC50 for CN1CCN(C2CCN(c3ccc(Nc4ncc5c(n4)N(C4CCCC4)C(=O)[C@]4(CCNC4=O)C5)cc3F)CC2)CC1 [Example D105]
Ans: 6.76
